- STUDY_TARGET: IL-23R (Homo sapiens, UniProt Q5VWK5)
- Construct: host or cells: HEK293
- Sequence (Q5VWK5 24-629): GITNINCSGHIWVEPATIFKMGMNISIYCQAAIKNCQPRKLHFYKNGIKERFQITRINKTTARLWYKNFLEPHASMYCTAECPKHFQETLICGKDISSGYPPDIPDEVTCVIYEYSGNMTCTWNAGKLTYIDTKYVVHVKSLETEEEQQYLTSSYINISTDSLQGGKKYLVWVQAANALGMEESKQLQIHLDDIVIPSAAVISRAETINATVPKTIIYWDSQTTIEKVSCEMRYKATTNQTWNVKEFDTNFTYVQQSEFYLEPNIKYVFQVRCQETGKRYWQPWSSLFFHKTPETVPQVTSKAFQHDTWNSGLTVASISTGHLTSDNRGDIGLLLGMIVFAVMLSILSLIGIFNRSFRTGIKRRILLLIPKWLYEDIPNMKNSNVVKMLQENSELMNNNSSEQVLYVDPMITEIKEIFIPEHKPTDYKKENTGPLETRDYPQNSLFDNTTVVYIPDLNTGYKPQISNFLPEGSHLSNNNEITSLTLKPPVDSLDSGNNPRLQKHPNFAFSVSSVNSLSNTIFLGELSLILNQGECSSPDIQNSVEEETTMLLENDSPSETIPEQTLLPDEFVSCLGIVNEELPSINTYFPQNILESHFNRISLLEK
- TEST_NAME: IL23R Reporter Assay
- Type: cell-based
- CONDITIONS: HEK293 cells containing IL-23R, IL-12RP1 and STAT-inducible firefly luciferase reporter; 10 ng/mL IL-23 (EC90); 5 h at 37° C.; read-out: IL23R Reporter Assay
pIC50: −log10 of the molar value. Positions of bridges follow the written chain, without caps; N, C: chain ends. Non-standard residues stand in square brackets, D forms with d. Residues, ends and D or L forms follow the SMILES beside them. *: point of attachment. Trp(7-Me) = Cc1cccc2c(C[C@H](N)C(=O)O)c[nH]c12; 2Nal = N[C@@H](Cc1ccc2ccccc2c1)C(=O)O; 3Pal = N[C@@H](Cc1cccnc1)C(=O)O; Pen = CC(C)(S)[C@H](N)C(=O)O; Thp = NC1(C(=O)O)CCOCC1; Me2NCH2CH2 = CN(C)CC*; Sar = CNCC(=O)O
QUANTITY_NAME: pIC50

>>> observed_measurement("COCCOCCOCC[N+](C)(C)CCc1cn(C[C@H](NC(=O)[C@H]2NC(=O)[C@H](CCCCN(C)C(C)=O)NC(=O)[C@H](Cc3c[nH]c4c(C)cccc34)NC(=O)[C@H]([C@@H](C)O)NC(=O)[C@H](CC(=O)N(C)C)NC(=O)[C@@H](NC(=O)CCOCCOCC[N+](C)(C)C)C(C)(C)SSC2(C)C)C(=O)N[C@@H](Cc2ccc3ccccc3c2)C(=O)NC2(C(=O)N[C@@H](CCCCN(C)C(C)=O)C(=O)N[C@@H](CC(N)=O)C(=O)N[C@@H](Cc3cccnc3)C(=O)N(C)CC(=O)N(C)C)CCOCC2)nn1 [compound 289]")
7.10
>>> observed_measurement("CC(=O)N[C@@H](COCCOCC[N+](C)(C)C)C(=O)N[C@@H]1C(=O)N[C@@H](CC(=O)N(C)C)C(=O)N[C@@H]([C@@H](C)O)C(=O)N[C@@H](Cc2c[nH]c3c(C)cccc23)C(=O)N[C@@H](CCCCN(C)C(C)=O)C(=O)N[C@H](C(=O)N[C@@H](Cc2ccc(OCCOCCOCC[N+](C)(C)C)cc2)C(=O)N[C@@H](Cc2ccc3ccccc3c2)C(=O)NC2(C(=O)N[C@@H](CCCCN(C)C(C)=O)C(=O)N[C@@H](CC(N)=O)C(=O)N[C@@H](Cc3cccnc3)C(=O)N(C)CC(=O)N(C)C)CCOCC2)C(C)(C)SSC1(C)C (relative stereo) [compound 318]")
9.05
>>> observed_measurement("CC(=O)N[C@@H]1C(=O)N[C@@H](CC(=O)N(C)C)C(=O)N[C@@H]([C@@H](C)O)C(=O)N[C@@H](Cc2c[nH]c3c(C)cccc23)C(=O)N[C@H](COCCOCC[N+](C)(C)C)C(=O)N[C@H](C(=O)N[C@@H](Cc2ccc(OCCOCCOCC[N+](C)(C)C)cc2)C(=O)N[C@@H](Cc2ccc3ccccc3c2)C(=O)NC2(C(=O)N[C@@H](CCCCN(C)C(C)=O)C(=O)N[C@@H](CC(N)=O)C(=O)N[C@@H](Cc3cccnc3)C(=O)N(C)CC(=O)N(C)C)CCOCC2)C(C)(C)SSC1(C)C (relative stereo) [compound 268]")
6.96
>>> observed_measurement("CC(=O)NCCCC[C@@H]1NC(=O)[C@H](Cc2c[nH]c3c(C)cccc23)NC(=O)[C@H]([C@@H](C)O)NC(=O)[C@H](CC(N)=O)NC(=O)[C@@H](NC(=O)CCOCCOCC[N+](C)(C)C)C(C)(C)SSC(C)(C)[C@@H](C(=O)N[C@@H](Cc2ccc(OCCN)cc2)C(=O)N[C@@H](Cc2ccc3ccccc3c2)C(=O)NC2(C(=O)N[C@@H](CCC(=O)O)C(=O)N[C@@H](CC(N)=O)C(=O)N[C@@H](Cc3cncc(C)c3)C(=O)N(C)CC(N)=O)CCOCC2)NC1=O [compound 506]")
8.39
>>> observed_measurement("CC(=O)N[C@@H]1C(=O)N[C@@H](C)C(=O)N[C@@H]([C@@H](C)O)C(=O)N[C@@H](Cc2c[nH]c3c(C)cccc23)C(=O)N[C@@H](C)C(=O)N[C@H](C(=O)N[C@@H](Cc2ccc(OCCN(C)C)cc2)C(=O)N[C@@H](Cc2ccc3ccccc3c2)C(=O)NC2(C(=O)N[C@@H](C)C(=O)N[C@@H](CC(N)=O)C(=O)N[C@@H](Cc3cccnc3)C(=O)N(C)CC(=O)N(C)C)CCOCC2)C(C)(C)SSC1(C)C [compound 121] (Ac-[Pen]AT[Trp(7-Me)]A[Pen]Y(Me2NCH2CH2)[2Nal][Thp]AN[3Pal][Sar]-NMe2; disulfide 1-6)")
7.89
>>> observed_measurement("CC(=O)NCCCC[C@@H]1NC(=O)[C@H](Cc2c[nH]c3c(-c4cccc(NC(C)=O)c4)cccc23)NC(=O)[C@H]([C@@H](C)O)NC(=O)[C@H](CC(N)=O)NC(=O)[C@@H](NC(C)=O)C(C)(C)SSC(C)(C)[C@@H](C(=O)N[C@@H](Cc2ccc(OCCCCC[N+](C)(C)C)cc2)C(=O)N[C@@H](Cc2ccc3ccccc3c2)C(=O)NC2(C(=O)N[C@@H](CCCCNC(C)=O)C(=O)N[C@@H](CC(N)=O)C(=O)N[C@@H](Cc3cncc(C)c3)C(=O)N(C)CC(N)=O)CCOCC2)NC1=O [compound 503]")
8.08
>>> observed_measurement("CC(=O)NCCCC[C@@H]1NC(=O)[C@H](Cc2c[nH]c3c(C)cccc23)NC(=O)[C@H]([C@@H](C)O)NC(=O)[C@H](CC(N)=O)NC(=O)[C@@H](NC(=O)C(COCCOCC[N+](C)(C)C)NC(C)=O)C(C)(C)SSC(C)(C)[C@@H](C(=O)N[C@@H](Cc2ccc(OCCCCC[N+](C)(C)C)cc2)C(=O)N[C@@H](Cc2ccc3ccccc3c2)C(=O)NC2(C(=O)N[C@@H](CCCCNC(C)=O)C(=O)N[C@@H](CC(N)=O)C(=O)N[C@@H](Cc3cccnc3)C(=O)N(C)CC(N)=O)CCOCC2)NC1=O (mixture of isomers) [compound 556]")
8.23
>>> observed_measurement("CC(=O)NCCCC[C@@H]1NC(=O)[C@H](Cc2c[nH]c3c(C)cccc23)NC(=O)[C@H]([C@@H](C)O)NC(=O)[C@H](CC(N)=O)NC(=O)[C@@H](NC(C)=O)C(C)(C)SSC(C)(C)[C@@H](C(=O)N[C@@H](Cc2ccc(OCCCCC[N+](C)(C)C)cc2)C(=O)N[C@@H](Cc2ccc3ccccc3c2)C(=O)NC2(C(=O)N[C@@H](CCCCNC(=O)CCCCCc3ccc(I)cc3)C(=O)N[C@@H](CC(N)=O)C(=O)N[C@@H](Cc3cccnc3)C(=O)N(C)CC(N)=O)CCOCC2)NC1=O [compound 546]")
8.14

Hey, just so you know, these numbers are from patent US20260022143A1.
